TGT: furin, P09958
Sequence (P09958 whole entry): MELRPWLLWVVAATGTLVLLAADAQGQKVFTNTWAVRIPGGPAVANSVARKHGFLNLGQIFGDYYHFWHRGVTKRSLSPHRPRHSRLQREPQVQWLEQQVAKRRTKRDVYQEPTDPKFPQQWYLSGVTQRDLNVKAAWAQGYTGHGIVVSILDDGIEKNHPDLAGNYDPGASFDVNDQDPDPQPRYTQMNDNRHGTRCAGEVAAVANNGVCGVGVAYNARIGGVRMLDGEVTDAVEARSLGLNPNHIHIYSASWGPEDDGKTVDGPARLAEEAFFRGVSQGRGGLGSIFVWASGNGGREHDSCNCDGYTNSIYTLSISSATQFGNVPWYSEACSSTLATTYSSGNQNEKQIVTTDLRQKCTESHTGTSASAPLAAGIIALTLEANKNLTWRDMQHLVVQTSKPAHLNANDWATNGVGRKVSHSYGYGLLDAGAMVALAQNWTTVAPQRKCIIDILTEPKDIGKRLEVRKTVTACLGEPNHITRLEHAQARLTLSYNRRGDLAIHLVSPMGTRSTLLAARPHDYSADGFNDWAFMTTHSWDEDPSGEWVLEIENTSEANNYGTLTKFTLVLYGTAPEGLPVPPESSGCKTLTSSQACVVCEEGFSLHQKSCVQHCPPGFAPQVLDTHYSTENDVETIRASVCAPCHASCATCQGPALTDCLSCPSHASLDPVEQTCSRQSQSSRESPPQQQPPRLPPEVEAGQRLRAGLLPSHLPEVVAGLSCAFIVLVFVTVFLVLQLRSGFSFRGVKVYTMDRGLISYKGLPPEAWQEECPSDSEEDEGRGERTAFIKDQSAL
TEST NAME: furin cleavage Z-score vs untreated control; higher = more cleavage, active = 3.5 or more, inactive = 1 or less, 8 variable residues between constant flanks;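 also: purified furin at 1:10 enzyme:substrate in 50 mM HEPES pH 7.5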
MEASUREMENT PARAMETERS: 15 min
The list shows a part of the results. No count for the full screen is at hand.
Choose the fitting class; nothing outside active, inactive is accepted.

CAVTRRKGRCAGNASASA [FS-1294]: active

In: Called result for CAHFKRTRRSAGNASASA [FS-1532]
Out: active

In: Proceed to CAMLVCGDDLAGNASASA [HC1527]
Out: inactive
